Provenance of the data: patent US12421253B2

# key: entry, value: IC50
# study-target: KRas^G12D (Homo sapiens, UniProt P01116, G12D)
# Construct: […]; biotin (biotinylated); purchased Accelegan Inc
# Sequence (P01116 1-169 isoform P01116-2 G12D): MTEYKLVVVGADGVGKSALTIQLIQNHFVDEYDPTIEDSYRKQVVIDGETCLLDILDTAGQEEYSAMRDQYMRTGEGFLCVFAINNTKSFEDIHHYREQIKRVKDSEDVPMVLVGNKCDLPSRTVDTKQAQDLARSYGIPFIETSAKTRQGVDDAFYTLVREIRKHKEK
# method-notes: KRas binding assay (TR-FRET displacement of Cy5 labelled tracer)
I only need the number, in nM, no unit after it.

Let me check: CCc1cccc2cccc(N3CCc4c(nc(OCC56CCCN5CCC6)nc4N4CCCC(c5nc(C)no5)C4)C3)c12 (stereo not shown) , system KRas^G12D (Homo sapiens, UniProt P01116, G12D), measured IC50 is 7510

Response field IC50 (KRas^G12D (Homo sapiens, UniProt P01116, G12D)) for item CCc1cccc2cccc(N3CCc4c(nc(OCC56CCCN5CCC6)nc4NC[C@H]4CCC(=O)N4)C3)c12 : 7620

Reading of IC50 for CCc1cccc2cccc(N3CCc4c(nc(OCC56CCCN5CCC6)nc4N4CCCC5(C4)NC(=O)NC5=O)C3)c12 (stereo not shown) with KRas^G12D (Homo sapiens, UniProt P01116, G12D): 3

Record for CCc1c(F)ccc2cc(O)cc(N3CCc4c(nc(OC[C@@]56CCCN5C[C@H](F)C6)nc4N4CCCC5(CNS(=O)(=O)N5)C4)C3)c12 (stereo partly shown) under target or system KRas^G12D (Homo sapiens, UniProt P01116, G12D): IC50 reported as 4

// IC50 (KRas^G12D (Homo sapiens, UniProt P01116, G12D)) for CCc1cccc2cccc(N3CCc4c(nc(OCC56CCCN5CCC6)nc4N4CCCC(n5nccn5)C4)C3)c12 (stereo not shown) = 3900
